Emax at 10 µM overview
# Experimental system: hKOR (Homo sapiens, UniProt P41145)
# Method summary: KOR cAMP assay using GloSensor-22F, agonist mode (KOR-CHO-GLO cells)
# Assay type: cell-based
# Reported conditions: read-out: KOR Efficacy (%)
Where a SMILES comes first, the peptide text is derived from it. [ ]: non-standard residue; d: D form. The star is where a group is joined. dPhe(3,4,5-F3) = N[C@H](Cc1cc(F)c(F)c(F)c1)C(=O)O; dPhe(3,4-F2) = N[C@H](Cc1ccc(F)c(F)c1)C(=O)O; For = O=C*
Just the number in %, nothing appended.

Example entries and their recorded answers appear below.
- Molecule: "O=C1N[C@H](Cc2cc(F)c(F)c(F)c2)C(=O)N[C@@H](Cc2ccccc2)C(=O)N2CCC[C@@H]2C(=O)N[C@H]1Cc1ccccc1 [Analog 11] (cyclo(F[dP]F[dPhe(3,4,5-F3)]))"
  Measurement unit: "%"
  Emax at 10 µM: 2.2
- Molecule: "O=C1N[C@H](Cc2ccc(F)c(F)c2)C(=O)N[C@@H](Cc2ccccc2)C(=O)N2CCC[C@@H]2C(=O)N[C@H]1Cc1ccccc1 [Analog 8] (cyclo(F[dP]F[dPhe(3,4-F2)]))"
  Measurement unit: "%"
  Emax at 10 µM: 13

What measured Emax at 10 µM goes with O=Cn1cc(C[C@H]2NC(=O)[C@H](Cc3ccccc3)NC(=O)[C@H]3CCCN3C(=O)[C@H](Cc3ccccc3)NC2=O)c2ccccc21 [Analog 3, [D-Trp(formamide)]CJ-15,208] (cyclo(F[dP]F[dW](For))) ? 9.2

---

# Experimental system: UniProtKB P41145
# Method summary: KOR cAMP assay using GloSensor-22F, antagonist mode (vs 10 nM U50,488)
# Format: cell-based
# Reported conditions: antagonism of an IC80 concentration (10 nM) of U50,488 in the cAMP assay; ± SEM; read-out: KOR Antag. IC50
Experimental readout: IC50 (nM)
Numbers only; they are read as nM.

Value lookup for IC50; key = Cc1cc(C)cc([C@@H]2CCCN2Cc2ccc(Oc3ccc(C(N)=O)cc3F)cc2)c1 [Aticaprant, reference compound] 8

---

Form field: half-life at 1 µM (one value per entry).
# Method summary: Metabolic stability in human liver microsomes
# Format: in vitro ADME
# Reported conditions: human liver microsomes, 1 µM compound, 1 mg protein/mL, 37 °C, read-out: HLM t1/2
Where a SMILES comes first, the peptide text is derived from it. [ ]: non-standard residue; d: D form. The star is where a group is joined. For = O=C*
Form entry: value (min) — number only.

Sample O=C1N[C@H](Cc2c[nH]c3ccccc23)C(=O)N[C@@H](Cc2ccccc2)C(=O)N2CCC[C@@H]2C(=O)N[C@H]1Cc1ccccc1 [Analog 1, cyclo[Phe-D-Pro-Phe-D-Trp]] (cyclo(F[dP]F[dW])) — what was its half-life at 1 µM? 5.5

Another compound to look at: O=Cn1cc(C[C@H]2NC(=O)[C@H](Cc3ccccc3)NC(=O)[C@H]3CCCN3C(=O)[C@H](Cc3ccccc3)NC2=O)c2ccccc21 [Analog 3, [D-Trp(formamide)]CJ-15,208] (cyclo(F[dP]F[dW](For))) 2.8

Next compound: O=C1N[C@H](Cc2ccccc2)C(=O)N[C@@H](Cc2ccccc2)C(=O)N2CCC[C@@H]2C(=O)N[C@H]1Cc1ccccc1 [Analog 4, cyclo[Phe-D-Pro-Phe-D-Phe]] (cyclo(F[dP]F[dF])) 4.2

---

Attribute: Emax at 10 µM
# Experimental system: hKOR (Homo sapiens, UniProt P41145)
# Method summary: KOR cAMP assay using GloSensor-22F, agonist mode (KOR-CHO-GLO cells)
# Format: cell-based
# Reported conditions: read-out: KOR Efficacy (%)
Where a SMILES comes first, the peptide text is derived from it. [ ]: non-standard residue; d: D form. dPhe(4-NO2) = N[C@H](Cc1ccc([N+](=O)[O-])cc1)C(=O)O; dPhe(3-Me) = Cc1cccc(C[C@@H](N)C(=O)O)c1; dPhe(4-Me) = Cc1ccc(C[C@@H](N)C(=O)O)cc1; dPhe(4-F) = N[C@H](Cc1ccc(F)cc1)C(=O)O
Could you give me the number in %? Just the number is fine.

Previously resolved entries follow.
- Molecule: "O=C1N[C@H](Cc2c[nH]c3ccccc23)C(=O)N[C@@H](Cc2ccccc2)C(=O)N2CCC[C@@H]2C(=O)N[C@H]1Cc1ccccc1 [Analog 1, cyclo[Phe-D-Pro-Phe-D-Trp]] (cyclo(F[dP]F[dW]))"
  Experimental system: "hKOR (Homo sapiens, UniProt P41145)"
  Numeric readout: 16
- Molecule: "Cc1ccc(C[C@H]2NC(=O)[C@H](Cc3ccccc3)NC(=O)[C@H]3CCCN3C(=O)[C@H](Cc3ccccc3)NC2=O)cc1 [Analog 15] (cyclo(F[dP]F[dPhe(4-Me)]))"
  Experimental system: "hKOR (Homo sapiens, UniProt P41145)"
  Numeric readout: 18
- Molecule: "O=C1N[C@H](Cc2ccccc2)C(=O)N[C@@H](Cc2ccccc2)C(=O)N2CCC[C@@H]2C(=O)N[C@H]1Cc1ccccc1 [Analog 4, cyclo[Phe-D-Pro-Phe-D-Phe]] (cyclo(F[dP]F[dF]))"
  Experimental system: "hKOR (Homo sapiens, UniProt P41145)"
  Numeric readout: 19
- Molecule: "Cc1cccc(C[C@H]2NC(=O)[C@H](Cc3ccccc3)NC(=O)[C@H]3CCCN3C(=O)[C@H](Cc3ccccc3)NC2=O)c1 [Analog 14, [D-Phe(m-Me)^4]CJ-15,208] (cyclo(F[dP]F[dPhe(3-Me)]))"
  Experimental system: "hKOR (Homo sapiens, UniProt P41145)"
  Numeric readout: 0.74
- Molecule: "O=C1N[C@H](Cc2ccc([N+](=O)[O-])cc2)C(=O)N[C@@H](Cc2ccccc2)C(=O)N2CCC[C@@H]2C(=O)N[C@H]1Cc1ccccc1 [Analog 16] (cyclo(F[dP]F[dPhe(4-NO2)]))"
  Experimental system: "hKOR (Homo sapiens, UniProt P41145)"
  Numeric readout: 7.3

Suppose we examine the molecule "O=C1N[C@H](Cc2cc(F)c(F)cc2F)C(=O)N[C@@H](Cc2ccccc2)C(=O)N2CCC[C@@H]2C(=O)N[C@H]1Cc1ccccc1" ; what Emax at 10 µM value has been reported? 19

Now give it for O=C1N[C@H](Cc2ccc(F)cc2)C(=O)N[C@@H](Cc2ccccc2)C(=O)N2CCC[C@@H]2C(=O)N[C@H]1Cc1ccccc1 [Analog 7] (cyclo(F[dP]F[dPhe(4-F)])) too. 5.5

---

# Method summary: Kinetic aqueous solubility
# Assay type: physicochemical
# Reported conditions: 1% DMSO, pH 7.4
Where a SMILES comes first, the peptide text is derived from it. [ ]: non-standard residue; d: D form. dPhe(4-NO2) = N[C@H](Cc1ccc([N+](=O)[O-])cc1)C(=O)O; dPhe(3,4,5-F3) = N[C@H](Cc1cc(F)c(F)c(F)c1)C(=O)O; dTrp(1-Me) = Cn1cc(C[C@@H](N)C(=O)O)c2ccccc21; dPhe(3,4-F2) = N[C@H](Cc1ccc(F)c(F)c1)C(=O)O
Experimental readout: solubility kinetic (µM)
// note: answer is a bare numeric in µM

- Compound: "O=C1N[C@H](Cc2ccc([N+](=O)[O-])cc2)C(=O)N[C@@H](Cc2ccccc2)C(=O)N2CCC[C@@H]2C(=O)N[C@H]1Cc1ccccc1 [Analog 16] (cyclo(F[dP]F[dPhe(4-NO2)]))"
  Numeric readout: 6.7

// solubility kinetic lookup, key: O=C1N[C@H](Cc2c[nH]c3ccccc23)C(=O)N[C@@H](Cc2ccccc2)C(=O)N2CCC[C@@H]2C(=O)N[C@H]1Cc1ccccc1 [Analog 1, cyclo[Phe-D-Pro-Phe-D-Trp]] (cyclo(F[dP]F[dW])) 23

Check Cn1cc(C[C@H]2NC(=O)[C@H](Cc3ccccc3)NC(=O)[C@H]3CCCN3C(=O)[C@H](Cc3ccccc3)NC2=O)c2ccccc21 [Analog 2, [D-Trp(Me)]CJ-15,208] (cyclo(F[dP]F[dTrp(1-Me)])) too. 12

Input O=C1N[C@H](Cc2cc(F)c(F)c(F)c2)C(=O)N[C@@H](Cc2ccccc2)C(=O)N2CCC[C@@H]2C(=O)N[C@H]1Cc1ccccc1 [Analog 11] (cyclo(F[dP]F[dPhe(3,4,5-F3)])) 4.8

Same question for O=C1N[C@H](Cc2ccc(F)c(F)c2)C(=O)N[C@@H](Cc2ccccc2)C(=O)N2CCC[C@@H]2C(=O)N[C@H]1Cc1ccccc1 [Analog 8] (cyclo(F[dP]F[dPhe(3,4-F2)])) please. 9.5

---

# Selectivity (MOR Ki/KOR Ki) values compiled below
# Experimental system: hKOR (Homo sapiens)
# Method summary: Competition binding, [3H]U69,593, hKOR-CHO membranes
# Reported conditions: MOR Ki/KOR Ki
Where a SMILES comes first, the peptide text is derived from it. [ ]: non-standard residue; d: D form. dPhe(3,4,5-F3) = N[C@H](Cc1cc(F)c(F)c(F)c1)C(=O)O; dPhe(3,4-F2) = N[C@H](Cc1ccc(F)c(F)c1)C(=O)O; dPhe(3,5-F2) = N[C@H](Cc1cc(F)cc(F)c1)C(=O)O; dPhe(2-F) = N[C@H](Cc1ccccc1F)C(=O)O
Reply with the value as a number alone.

Past entries and their recorded results:
- Compound: "O=C1N[C@H](Cc2cc(F)c(F)c(F)c2)C(=O)N[C@@H](Cc2ccccc2)C(=O)N2CCC[C@@H]2C(=O)N[C@H]1Cc1ccccc1 [Analog 11] (cyclo(F[dP]F[dPhe(3,4,5-F3)]))"
  Selectivity (MOR Ki/KOR Ki): 4
- Compound: "O=C1N[C@H](Cc2cc(F)cc(F)c2)C(=O)N[C@@H](Cc2ccccc2)C(=O)N2CCC[C@@H]2C(=O)N[C@H]1Cc1ccccc1 [Analog 9, [D-Phe(3,5-F2)^4]CJ-15,208] (cyclo(F[dP]F[dPhe(3,5-F2)]))"
  Selectivity (MOR Ki/KOR Ki): 12
- Compound: "O=C1N[C@H](Cc2ccccc2F)C(=O)N[C@@H](Cc2ccccc2)C(=O)N2CCC[C@@H]2C(=O)N[C@H]1Cc1ccccc1 [Analog 5] (cyclo(F[dP]F[dPhe(2-F)]))"
  Selectivity (MOR Ki/KOR Ki): 9
- Compound: "O=C1N[C@H](Cc2ccccc2)C(=O)N[C@@H](Cc2ccccc2)C(=O)N2CCC[C@@H]2C(=O)N[C@H]1Cc1ccccc1 [Analog 4, cyclo[Phe-D-Pro-Phe-D-Phe]] (cyclo(F[dP]F[dF]))"
  Selectivity (MOR Ki/KOR Ki): 11

Form entry - test system: hKOR (Homo sapiens); read-out: Selectivity (MOR Ki/KOR Ki); compound: O=C1N[C@H](Cc2ccc(F)c(F)c2)C(=O)N[C@@H](Cc2ccccc2)C(=O)N2CCC[C@@H]2C(=O)N[C@H]1Cc1ccccc1 [Analog 8] (cyclo(F[dP]F[dPhe(3,4-F2)])) 9

The reported measurements were obtained from paper PMC12526156.
